# TARGET DESC: IgD-Fc (Fc region of human IgD, SpyTagged) (human)
# EXPERIMENTAL PROTOCOL: SEC; complexes of Nb and IgD-Fc with IgD-Fc at 2 µM, incubated overnight at 4 °C; Superdex 200 Increase 10/300 GL in HBS-az at 10 °C
Field: stoichiometry N. Provide a value for each of the binders that follow.

In: State, in one line, measured stoichiometry N of His-tagged anti-IgD Nb 367 (aδNb367) (VHH) VHH: QVQLQESGGGLVQPGGSLRLACAASGFSLSTYTMSWVRQSPGKGLEWVSTITSDGGWTSYRDSVKGRFTISRDNAKNTLYLQMNSLNPEDTAVYYCRRGVGVVRGERPGGQGTQVTVSS
Out: 2 Nb:IgD

In: State, in one line, measured stoichiometry N of His-tagged anti-IgD Nb 408 (aδNb408) (VHH) VHH: QVQLQESGGGLVQAGDSLRLSCVASGRSISNDAMAWFRQAPGKEREFVAAITWRYSNTHYSDSVKDRFTISRDNAKNTVYLQMNSLKPEDTADYYCAADRRGTGASSYSRDYDYWGQGTQVTVSS
Out: 2 Nb:IgD

In: State, in one line, measured stoichiometry N of His-tagged anti-IgD Nb 107 (aδNb107) (VHH) VHH: QVQLQESGGGLVQAGASLRLSCTASERTFSPYAMGWFRQAPGREREVIASIFWTGGNTGYADSVKGRFTISRDTAKNTVYLQMSNLKPEDTAVYYCGARTSASAPIYGLWGQGTQVTVSS
Out: 2 Nb:IgD

In: State, in one line, measured stoichiometry N of His-tagged anti-IgD Nb 571 (aδNb571) (VHH) VHH: QVQLQESGGGLVQPGGSLRLSCAASGTPFSASVMAWYRQAPGKERVWVATITSDSMTYYADSVNGRFTISRDNAKSTVYLQMNSLKPEDTAAYICRHAASASWGQGTQVTVSS
Out: 1 Nb:IgD
